Target desc: sLFA-1/ICAM-1 (Homo sapiens, UniProt P05107+P20701, DEL701-769)
Sequence (P20701 26-1090 limits assumed, stated change not applied): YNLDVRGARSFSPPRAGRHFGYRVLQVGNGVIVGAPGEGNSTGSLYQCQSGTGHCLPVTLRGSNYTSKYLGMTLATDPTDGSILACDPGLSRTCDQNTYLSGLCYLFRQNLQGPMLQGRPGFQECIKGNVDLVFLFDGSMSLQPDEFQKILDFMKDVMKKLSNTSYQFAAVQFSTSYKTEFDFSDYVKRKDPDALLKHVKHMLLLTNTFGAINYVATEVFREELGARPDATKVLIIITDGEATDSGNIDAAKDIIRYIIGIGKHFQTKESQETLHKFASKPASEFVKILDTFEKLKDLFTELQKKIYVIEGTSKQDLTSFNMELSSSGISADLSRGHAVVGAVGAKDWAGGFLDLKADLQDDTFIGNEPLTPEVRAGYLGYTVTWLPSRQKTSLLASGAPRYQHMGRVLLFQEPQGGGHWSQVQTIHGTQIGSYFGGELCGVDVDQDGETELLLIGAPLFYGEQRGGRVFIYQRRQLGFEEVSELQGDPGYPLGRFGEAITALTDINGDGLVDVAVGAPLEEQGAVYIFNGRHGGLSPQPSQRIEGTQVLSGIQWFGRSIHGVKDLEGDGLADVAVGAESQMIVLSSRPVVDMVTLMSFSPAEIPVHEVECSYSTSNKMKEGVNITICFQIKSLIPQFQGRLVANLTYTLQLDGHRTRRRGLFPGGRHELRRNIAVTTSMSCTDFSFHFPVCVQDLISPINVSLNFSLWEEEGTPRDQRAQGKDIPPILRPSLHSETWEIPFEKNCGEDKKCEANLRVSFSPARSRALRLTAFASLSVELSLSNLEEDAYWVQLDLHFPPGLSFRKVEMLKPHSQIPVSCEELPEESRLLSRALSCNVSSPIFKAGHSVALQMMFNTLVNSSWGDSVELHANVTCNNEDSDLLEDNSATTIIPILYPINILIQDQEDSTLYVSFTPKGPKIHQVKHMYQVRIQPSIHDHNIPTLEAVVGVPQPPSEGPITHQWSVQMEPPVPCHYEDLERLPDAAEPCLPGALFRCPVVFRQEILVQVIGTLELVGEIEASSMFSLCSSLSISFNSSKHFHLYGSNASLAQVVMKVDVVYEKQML
Sequence (P05107 23-700 limits assumed, stated change not applied): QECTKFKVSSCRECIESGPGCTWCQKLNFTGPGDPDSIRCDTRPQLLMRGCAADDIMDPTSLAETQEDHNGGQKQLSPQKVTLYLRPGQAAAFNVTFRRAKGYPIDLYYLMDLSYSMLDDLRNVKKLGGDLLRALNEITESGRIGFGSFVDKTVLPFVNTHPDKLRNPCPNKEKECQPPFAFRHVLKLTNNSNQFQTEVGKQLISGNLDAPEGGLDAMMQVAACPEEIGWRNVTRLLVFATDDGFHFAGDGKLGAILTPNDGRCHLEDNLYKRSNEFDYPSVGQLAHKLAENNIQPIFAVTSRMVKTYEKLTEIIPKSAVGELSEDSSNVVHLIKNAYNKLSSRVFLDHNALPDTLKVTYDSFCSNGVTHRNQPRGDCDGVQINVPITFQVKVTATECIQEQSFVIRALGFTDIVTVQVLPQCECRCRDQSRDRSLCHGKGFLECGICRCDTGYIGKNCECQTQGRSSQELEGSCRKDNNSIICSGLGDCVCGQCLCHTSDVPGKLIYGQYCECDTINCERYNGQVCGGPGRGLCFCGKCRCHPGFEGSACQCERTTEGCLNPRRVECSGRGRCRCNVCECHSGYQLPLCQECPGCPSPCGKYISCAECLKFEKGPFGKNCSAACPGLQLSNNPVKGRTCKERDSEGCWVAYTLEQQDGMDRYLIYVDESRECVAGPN
Test name: sLFA-1/ICAM-1 ELISA
Test parameters: sLFA-1 coated plates, 5dICAM-Fc binding, read-out: LFA/ICAM (IC50)
Task for the reader: assign each of the following compounds its reported pIC50.
Answers are plain numbers, as −log10 of the molar value.

# map each compound to its pIC50
1. Cc1cc(C(=O)NCc2cccc(O)c2)sc1C(=O)N[C@@H](CNC(=O)c1cc(O)cc(O)c1)C(=O)O
2. N#Cc1cc(C(=O)NCc2cccc3[nH]ncc23)sc1C(=O)N[C@@H](CNC(=O)c1cc(O)cc(O)c1)C(=O)O
3. Cc1cc(C(=O)NCc2cccc(O)c2)sc1C(=O)N[C@@H](CNC(=O)c1cc(=O)[nH]c(=O)[nH]1)C(=O)O
4. Cc1cc(C(=O)NCc2ccc(F)c(O)c2)sc1C(=O)N[C@@H](CNC(=O)c1cccs1)C(=O)O
5. O=C(NC[C@H](NC(=O)c1sc(C(=O)NCc2cccc3[nH]ccc23)cc1C(F)(F)F)C(=O)O)c1cccs1

8.70
7.39
7.26
7.96
6.46

# map each compound to its pIC50
1. Cc1nc(NC(=O)Cc2cccc(O)c2)sc1C(=O)N[C@@H](CNC(=O)c1cc(O)cc(O)c1)C(=O)O
2. Cc1nc(NCCc2cccc(O)c2)sc1C(=O)N[C@@H](CNC(=O)c1cc(O)cc(O)c1)C(=O)O
3. O=C(NC[C@H](NC(=O)c1sc(C(=O)NCc2cccc(O)c2)cc1Cl)C(=O)O)c1cccs1

8.52
7.89
8.15

# map each compound to its pIC50
1. O=C(NC[C@H](NC(=O)c1sc(C(=O)NCc2cccc3[nH]ncc23)cc1Cl)C(=O)O)c1cccs1
2. Cc1nc(NC(=O)Cc2cccc(O)c2)sc1C(=O)N[C@@H](CNC(=O)c1ccsc1)C(=O)O
3. Cc1nc(NC(=O)Cc2cccc(O)c2)sc1C(=O)N[C@@H](CNC(=O)c1cccs1)C(=O)O
4. CC(C)(C)c1cc(C(=O)NCc2cccc(O)c2)sc1C(=O)N[C@@H](CNC(=O)c1cccs1)C(=O)O
5. Cc1nc(NCCCc2cccc3[nH]ncc23)sc1C(=O)N[C@@H](CNC(=O)c1cccs1)C(=O)O

1. 7.54
2. 8.30
3. 8.40
4. 6.83
5. 6.65

Can you share its pIC50? I mean this compound: Cc1cc(C(=O)NC(C)c2cccc(O)c2)sc1C(=O)N[C@@H](CNC(=O)c1cccs1)C(=O)O (stereo partly drawn)
7.57

Data credit: patent US8404859B2
